Reference for the values: PubChem BioAssay (NCI)

Test: NCI Yeast Anticancer Drug Screen. Data for the bub3 strain (AID 167)
Details: S. cerevisiae bub3 mutant strain, at 50.0 µM, hits give high values
About 79,000 compounds went through this panel and 15% of them were active in at least one assay; those are over-represented in the sample as a whole.
Give growth inhibition for every item shown.
Dear colleague, please return just the value in %, with no unit written.

Query :: Dear colleague, I am looking for the recorded growth inhibition of the following compound: Cc1cccc(/C=C/c2csnn2)n1
Result :: -6.05

Query :: Dear colleague, I am looking for the recorded growth inhibition of the following compound: CC12CCC3[C@@H](CC3(C)C)C(O)(CCC1=O)C2 (some centres undefined)
Result :: -5.35

Query :: Dear colleague, I am looking for the recorded growth inhibition of the following compound: c1csc(-c2cc(-c3ccsc3)c(-c3ccsc3)s2)c1
Result :: -15.9

Query :: Dear colleague, I am looking for the recorded growth inhibition of the following compound: CCCCc1nc(C)oc1C(C)C
Result :: -23.9

Query :: Dear colleague, I am looking for the recorded growth inhibition of the following compound: [N-]=[N+]=Nc1ccnc2c(C(F)(F)F)cccc12
Result :: -14.3

Query :: Dear colleague, I am looking for the recorded growth inhibition of the following compound: C/C=C/C(=O)OC1CCCC1
Result :: 10

Query :: Dear colleague, I am looking for the recorded growth inhibition of the following compound: CN1C2C=CC(=O)C1C1C(=O)N(c3ccccc3)C(=O)C12 (centres undefined)
Result :: 23.8

Query :: Dear colleague, I am looking for the recorded growth inhibition of the following compound: O=[N+]([O-])c1cccc2ccc(N/N=C/c3ccccc3O)nc12
Result :: 7.25

Query :: Dear colleague, I am looking for the recorded growth inhibition of the following compound: O=C(CCC1CCCCC1)OC1CCCC1
Result :: -2.3

====

Give growth inhibition for every item shown.
Experiment: NCI Yeast Anticancer Drug Screen. Data for the rad50 strain (AID 155);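 further: 0% = growth of vehicle-only cultures of the same strain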
Conditions: S. cerevisiae rad50 strain growth inhibition; at 50.0 µM; hits give high values
Protocol: Growth inhibition of yeast strains with defined genetic alterations is measured as a screen for potential anti-cancer activity. Selected strains with alterations in DNA damage repair or cell cycle control were exposed to compounds and growth inhibition was measured relative to vehicle treated controls. The strain used in this assay is rad50
This is part of a sample that, as a whole, favours compounds with a hit. Of some 79,000 tested, about 15% had one in any assay.
Dear colleague, please return just the value in %, with no unit written.

Query :: Dear colleague, I am looking for the recorded growth inhibition of the following compound: Cc1c[nH]c(=O)n(CC(=O)C2(O)CCC3C4CCC5=CC(=O)CCC5(C)C4CCC32C)c1=O (stereo unspecified)
Result :: 5.25

Query :: Dear colleague, I am looking for the recorded growth inhibition of the following compound: CCOC(=O)Nc1ccc([N+](=O)[O-])cc1[N+](=O)[O-]
Result :: 15.9

Query :: Dear colleague, I am looking for the recorded growth inhibition of the following compound: CN1C(=O)c2ccccc2NC(=O)C12O[C@@H]2c1cccc(O)c1 (stereo partly specified)
Result :: 9

Query :: Dear colleague, I am looking for the recorded growth inhibition of the following compound: CNc1ccc(O)cc1
Result :: 3.6

Query :: Dear colleague, I am looking for the recorded growth inhibition of the following compound: COC(=O)CCCCCNC(=O)NCCCCCC(=O)OC
Result :: 4.6

Query :: Dear colleague, I am looking for the recorded growth inhibition of the following compound: COC(=O)c1nsc(OC)c1Cl
Result :: 22.1

Query :: Dear colleague, I am looking for the recorded growth inhibition of the following compound: Cc1ccc2nc(C)cc(N=[N+]=[N-])c2c1
Result :: -35.6

Query :: Dear colleague, I am looking for the recorded growth inhibition of the following compound: c1ccc([P+](CC[P+](c2ccccc2)(c2ccccc2)c2ccccc2)(c2ccccc2)c2ccccc2)cc1
Result :: -11.7

Query :: Dear colleague, I am looking for the recorded growth inhibition of the following compound: COCC1OC(n2cc(C)c(=O)n(C)c2=O)CC1OC (stereo unspecified)
Result :: 1.2

Query :: Dear colleague, I am looking for the recorded growth inhibition of the following compound: Cc1ccc(S(=O)(=O)n2ccnc2)cc1
Result :: -46

Query :: Dear colleague, I am looking for the recorded growth inhibition of the following compound: C=CCNC(=O)CCCCCCCC1C(CCCCCCCC)C2(Cl)C(Cl)=C(Cl)C1(Cl)C2(Cl)Cl (stereo unspecified)
Result :: 23.6

Query :: Dear colleague, I am looking for the recorded growth inhibition of the following compound: CCCCCC(C)(O)CCC (stereo unspecified)
Result :: -5.9

Query :: Dear colleague, I am looking for the recorded growth inhibition of the following compound: Nc1ncnc2nc(N3CCN(CCO)CC3)[nH]c12
Result :: 9.45

Query :: Dear colleague, I am looking for the recorded growth inhibition of the following compound: CC1CC(O)CC(C)(C)C1.CC1CC(O)CC(C)(C)C1.CC1CC(O)CC(C)(C)C1.CC1CC(O)CC(C)(C)C1.[Ti] (stereo unspecified)
Result :: 13.9

Query :: Dear colleague, I am looking for the recorded growth inhibition of the following compound: O=C(c1ccncc1)n1nc(-c2ccccc2)c(N=Nc2ccccc2[N+](=O)[O-])c1-c1ccccc1
Result :: -1.75

Query :: Dear colleague, I am looking for the recorded growth inhibition of the following compound: [N-]=[N+]=Nc1ccnc2c(C(F)(F)F)cccc12
Result :: -19.9
